Tested on: HSC-2
Experiment: Cytotoxic activity (MTT) against OSCC cell line HSC-2
Format: cell-based, human
Conditions: HSC-2 CC50 ratio versus compound 1
experimental-readout: increase in cytotoxicity compared to non-substituted compound 1 (times)
// return numeric value only (unit: times, not printed)

compound	unit-tag	observed
CC(C)c1ccc(C=CC(=O)c2ccc3[nH]c(=O)oc3c2)cc1 [Compound 6]	times	2.2

Measured increase in cytotoxicity compared to non-substituted compound 1 of COc1ccc(C=CC(=O)c2ccc3[nH]c(=O)oc3c2)cc1 [Compound 3] : 1.5

Measured increase in cytotoxicity compared to non-substituted compound 1 of O=C(C=Cc1ccc(OCc2ccccc2)cc1)c1ccc2[nH]c(=O)oc2c1 [Compound 8] : 1.9

Measured increase in cytotoxicity compared to non-substituted compound 1 of Cc1ccc(C=CC(=O)c2ccc3[nH]c(=O)oc3c2)cc1 [Compound 2] : 2.2

Measured increase in cytotoxicity compared to non-substituted compound 1 of O=C(C=Cc1ccc(C(F)(F)F)cc1)c1ccc2[nH]c(=O)oc2c1 [Compound 4] : 5.5

----------
Test system: HSC-2
Assay: Cytotoxic activity (MTT) against OSCC cell line HSC-2
Format: cell-based, human
Details: Homo sapiens; HSC-2, 48 h incubation, MTT, triplicate
Collected CC50 values appear next to each entry.
// return numeric value only (unit: µM, not printed)

Examples with answers:
molecule	observed
Cc1ccc(C=CC(=O)c2ccc3[nH]c(=O)oc3c2)cc1	10.1
O=C(C=Cc1ccc(OCc2ccccc2)cc1)c1ccc2[nH]c(=O)oc2c1	11.9
O=C(C=Cc1ccc(C(F)(F)F)cc1)c1ccc2[nH]c(=O)oc2c1	4
O=C(C=Cc1cccc(O)c1)c1ccc2[nH]c(=O)oc2c1	6.9
O=C(C=Cc1ccccc1)c1ccc2[nH]c(=O)oc2c1	22.1

Measured CC50 of COc1cccc2c1C(=O)c1c(O)c3c(c(O)c1C2=O)C[C@@](O)(C(=O)CO)C[C@@H]3O[C@H]1C[C@H](N)[C@H](O)[C@H](C)O1 [DXR, Doxorubicin, reference compound] : 0.5

Measured CC50 of COc1ccc(C=CC(=O)c2ccc3[nH]c(=O)oc3c2)cc1 : 14.5

Measured CC50 of CC(C)c1ccc(C=CC(=O)c2ccc3[nH]c(=O)oc3c2)cc1 : 10.1

Measured CC50 of CN(C)c1ccc(C=CC(=O)c2ccc3[nH]c(=O)oc3c2)cc1 : 30.2
